Reported half-life at 1 µM by item:
experiment: Half life in human liver microsome at 1 uM by LC/MS/MS analysis; type: ADME; conditions: liver microsomes

A selection of reference data follows.
compound structure string	half-life at 1 µM
Cc1ccc(NC(=O)[C@H](CC2CCC(F)(F)CC2)n2ccc(S(=O)(=O)C(C)C)cc2=O)nc1	1.22 h
Cc1cnc(NC(=O)[C@H](CC2CCCC2)n2ccc(S(C)(=O)=O)cc2=O)cn1	> 2 h
CC(C)S(=O)(=O)c1ccn([C@@H](CC2CCCC2)C(=O)Nc2ccn(C)n2)c(=O)c1	1.55 h
Cc1ccc(NC(=O)[C@H](CC2CCCC2)n2ccc(S(C)(=O)=O)cc2=O)nc1	> 2 h

// next item, half-life at 1 µM requested
Enquiry: Value lookup for half-life at 1 µM; key = CCS(=O)(=O)c1ccn([C@@H](CC2CCOCC2)C(=O)Nc2ccc(C)cn2)c(=O)c1
Return: > 2 h

* * *

Listed here: items and their measured bioavailability.
assay: Bioavailability in Sprague-Dawley rat at 0.5 mg/kg, iv and 5 mg/kg, po; assay type: ADME, organism-based; details: in vivo
Numeric only. Scale: %

compound structure string	result unit	bioavailability
CC(C)S(=O)(=O)c1ccn([C@@H](CC2CCCC2)C(=O)Nc2ccn(C)n2)c(=O)c1	%	8

Now for a further molecule.
Enquiry: Which bioavailability value is on record for Cc1cnc(NC(=O)[C@H](CC2CCCC2)n2ccc(S(C)(=O)=O)cc2=O)cn1 ?
Return: 2
